Value source: ChEMBL document CHEMBL5052842

Biological target: UniProtKB O94966
Sequence (O94966 whole entry): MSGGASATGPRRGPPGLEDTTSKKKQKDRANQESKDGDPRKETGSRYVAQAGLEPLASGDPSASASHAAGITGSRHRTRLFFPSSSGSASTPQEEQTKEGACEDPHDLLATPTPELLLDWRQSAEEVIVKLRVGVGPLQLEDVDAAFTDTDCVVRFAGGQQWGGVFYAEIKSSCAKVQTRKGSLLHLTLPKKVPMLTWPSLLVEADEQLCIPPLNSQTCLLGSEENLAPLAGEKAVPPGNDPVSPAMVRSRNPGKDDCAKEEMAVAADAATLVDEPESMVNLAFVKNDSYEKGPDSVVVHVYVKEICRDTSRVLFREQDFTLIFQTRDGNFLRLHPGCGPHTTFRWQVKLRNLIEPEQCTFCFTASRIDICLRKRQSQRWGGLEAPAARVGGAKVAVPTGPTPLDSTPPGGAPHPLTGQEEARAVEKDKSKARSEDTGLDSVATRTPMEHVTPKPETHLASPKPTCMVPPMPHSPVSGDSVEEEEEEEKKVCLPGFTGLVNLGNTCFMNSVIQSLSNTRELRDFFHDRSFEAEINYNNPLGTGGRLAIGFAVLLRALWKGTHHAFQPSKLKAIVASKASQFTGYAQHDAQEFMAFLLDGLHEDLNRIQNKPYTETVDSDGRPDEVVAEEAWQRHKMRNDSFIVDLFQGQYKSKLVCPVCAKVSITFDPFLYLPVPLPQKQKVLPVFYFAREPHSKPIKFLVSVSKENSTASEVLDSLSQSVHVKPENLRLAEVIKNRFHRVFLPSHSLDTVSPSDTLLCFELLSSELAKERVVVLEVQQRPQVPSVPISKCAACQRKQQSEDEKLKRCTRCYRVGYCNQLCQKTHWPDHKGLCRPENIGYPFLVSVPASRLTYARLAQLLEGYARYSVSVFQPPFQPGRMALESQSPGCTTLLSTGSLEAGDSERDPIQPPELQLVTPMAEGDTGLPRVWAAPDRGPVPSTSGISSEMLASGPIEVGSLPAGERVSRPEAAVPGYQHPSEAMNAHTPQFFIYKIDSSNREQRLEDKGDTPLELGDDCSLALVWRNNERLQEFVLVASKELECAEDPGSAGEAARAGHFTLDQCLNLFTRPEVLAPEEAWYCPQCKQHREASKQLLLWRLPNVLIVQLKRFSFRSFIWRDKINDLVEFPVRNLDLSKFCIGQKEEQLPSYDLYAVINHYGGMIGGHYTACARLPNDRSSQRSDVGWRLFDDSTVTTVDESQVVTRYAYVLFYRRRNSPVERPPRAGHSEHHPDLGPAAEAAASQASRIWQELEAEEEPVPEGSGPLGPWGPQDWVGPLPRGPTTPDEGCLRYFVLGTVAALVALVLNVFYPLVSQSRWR
Experiment: Inhibition of C-terminal His6-tagged recombinant human USP19 using iso-peptide ubiquitin-Lys-TAMRA as substrate incubated for 30 mins and measured after 90 mins by fluorescent polarization assay
RECORDED ENDPOINT: IC50

Record excerpt, results attached:
>>> measured_result("O=C(N1CC[C@@](O)(Cn2cnc(-c3ccccc3)cc2=O)C2(CCCC2)C1)N1CCS(=O)(=O)CC1c1ccccc1 (stereo partly specified)")
"< 500 nM"
>>> measured_result("O=C(N1CC[C@@](O)(Cn2ccc(C3CC3)cc2=O)C2(CCCC2)C1)N1CCNC[C@H]1c1ccccc1")
"< 500 nM"

# input Consider the compound shown here: O=C(NCc1ccccc1)N1CCC(O)(Cn2ccc(-c3ccccc3)cc2=O)C2(CCCC2)C1 (stereo unspecified) What is its recorded IC50?
# output < 500 nM

# input Consider the compound shown here: CC1(C)CN(C(=O)N2CCNC[C@H]2c2ccccc2)CC[C@@]1(O)Cn1cnc(-c2ccccc2)cc1=O What is its recorded IC50?
# output < 500 nM

# input Consider the compound shown here: O=C(NCc1ccc(F)cc1F)N1CC[C@@](O)(Cn2cnc(-c3ccccc3)cc2=O)C2(CCCC2)C1 What is its recorded IC50?
# output < 500 nM

# input Consider the compound shown here: C[C@H](CC(F)(F)F)C(=O)N1CCC(O)(CN2CCN(c3ccccn3)CC2=O)C2(CCCC2)C1 (stereo partly specified) What is its recorded IC50?
# output < 500 nM

# input Consider the compound shown here: CC(=O)N1CCN(CC2(O)CCN(C(=O)[C@H](C)CC3CCCCC3)CC23CCCC3)C(=O)C1 (stereo partly specified) What is its recorded IC50?
# output < 500 nM
